Molecular target: Human neutrophil elastase (Homo sapiens, UniProt P08246)
Assay: Human Neutrophil Elastase Assay
Settings: Neutrophil Elastase assay; substrate MeOSuc-Ala-Ala-Pro-Val-AMC 250 μM; 15 min preincubation, 60 min incubation at room temperature; pH 7.5
property label: IC50 (µM)
Your answer should be a plain number; it is taken to be in µM.

-- ask Quote Human neutrophil elastase (Homo sapiens, UniProt P08246) IC50 for entry "CCCS(=O)(=O)c1cc(C#N)ccc1Cn1cc(C(=O)NC)c(=O)c(-c2cccc(C(F)(F)F)c2)c1C" .
-- reply 0.014

-- ask State IC50 (Human neutrophil elastase (Homo sapiens, UniProt P08246)) of Cc1c(-c2cccc(C(F)(F)F)c2)c(=O)c(C(=O)NC2CC(=O)N(C)C2)cn1Cc1ccc(C#N)cc1 (stereo not shown) .
-- reply 0.0114

-- ask Using Human neutrophil elastase (Homo sapiens, UniProt P08246) as the test system, report measured IC50 of "CCNC(=O)c1cn(Cc2ccc(C#N)cc2S(C)(=O)=O)c(C)c(-c2cccc(C(F)(F)F)c2)c1=O" .
-- reply 0.0046

-- ask Fill: IC50 (Human neutrophil elastase (Homo sapiens, UniProt P08246)) for this compound "Cc1c(-c2cc(C(F)(F)F)ccn2)c(=O)c(C(=O)NCc2ccc(S(C)(=O)=O)cc2)cn1Cc1ccc(C#N)cc1"
-- reply 0.0038

-- ask Determine reported IC50 for "Cc1c(-c2ccccc2)c(=O)c(C(=O)NCc2ccc(S(C)(=O)=O)cc2)cn1Cc1ccc(C#N)cc1" ; test system: Human neutrophil elastase (Homo sapiens, UniProt P08246).
-- reply 0.0445

-- ask Report its IC50 with Human neutrophil elastase (Homo sapiens, UniProt P08246) as the test system: "Cc1c(-c2cccc(C(F)(F)F)c2)c(=O)c(C(=O)NCCN(C)C)cn1Cc1ccc(C#N)cc1"
-- reply 0.0305

-- ask State IC50 (Human neutrophil elastase (Homo sapiens, UniProt P08246)) of CNC(=O)c1cn(C(C)c2ccc(C#N)cn2)c(C)c(-c2cccc(C(F)(F)F)c2)c1=O (single isomer, unassigned) [Example 15B] .
-- reply 0.0678

###

Biological target: Human neutrophil elastase (Homo sapiens, UniProt P08246)
Test: Human Neutrophil Elastase Assay
Conditions: Neutrophil Elastase assay; substrate MeOSuc-Ala-Ala-Pro-Val-AMC 250 μM; 15 min preincubation, 60 min incubation at room temperature; pH 7.5
Please respond with reported pIC50 for every item in the list.
Reminder that pIC50 means the negative base-10 logarithm of the concentration expressed in mol/L.

-- ask Please indicate pIC50 recorded for C=CCNC(=O)c1cn(C(C)c2ccc(C#N)cc2)c(C)c(-c2ccnc(C(F)(F)F)c2)c1=O (centres unmarked)
-- reply 8.22

-- ask Retrieve pIC50 measured for "Cc1c(-c2cccc(C(F)(F)F)c2)c(=O)c(C(=O)NCc2ccc(S(C)(=O)=O)cc2)cn1C1(c2ccc(C#N)cc2)CC1" and print it.
-- reply 8.34

-- ask // Input: "Cc1c(-c2cccc(C(F)(F)F)c2)c(=O)c(C(=O)N[C@H]2CCC(=O)N(C)C2)cn1Cc1ccc(C#N)cc1" . Output its pIC50 only.
-- reply 7.33

-- ask Determine from records and report pIC50 for Cc1c(-c2cccc(C(F)(F)F)c2)c(=O)c(C(=O)NC2CCOC2)cn1Cc1ccc(C#N)cc1 (centres unmarked)
-- reply 7.02

-- ask Provide only the value of recorded pIC50 for Cc1c(-c2cccc(C(F)(F)F)c2)c(=O)c(C(=O)NCC(C)(C)O)cn1C(C)c1ccc(C#N)cn1 (centres unmarked)
-- reply 7.20

-- ask Tell me its pIC50 given "CCOCCNC(=O)c1cn(Cc2ccc(C#N)cc2)c(C)c(-c2cccc(C(F)(F)F)c2)c1=O" as the entry.
-- reply 8.00

-- ask Provide only the value of recorded pIC50 for COCCNC(=O)c1cn(C(C)c2ccc(C#N)cn2)c(C)c(-c2cccc(C(F)(F)F)c2)c1=O (centres unmarked)
-- reply 7.89

-- ask Please supply the value of reported pIC50 for the item Cc1c(-c2ccnc(C(F)(F)F)c2)c(=O)c(C(=O)NC2CCN(C)C2=O)cn1C(C)c1ccc(C#N)cc1 (centres unmarked)
-- reply 8.34

-- ask Provide only the value of recorded pIC50 for Cc1c(-c2ccnc(C(F)(F)F)c2)c(=O)c(C(=O)NCC2CC3CCC2O3)cn1C(C)c1ccc(C#N)cc1 (centres unmarked) [Example 9.30]
-- reply 7.79

-- ask Respond only with pIC50 recorded for Cc1c(-c2cccc(C(F)F)c2)c(=O)c(C(=O)NCCN(C)C)cn1C(C)c1ccc(C#N)cc1 (centres unmarked)
-- reply 8.37

-- ask Give pIC50 for Cc1c(-c2ccnc(C(F)(F)F)c2)c(=O)c(C(=O)NCc2ccnn2C)cn1C(C)c1ccc(C#N)cc1 (centres unmarked)
-- reply 8.17

-- ask Identify measured pIC50 corresponding to "Cc1c(-c2cccc(C(F)(F)F)c2)c(=O)c(C(=O)NC(CO)CO)cn1Cc1ccc(C#N)cc1"
-- reply 7.32

###

Target: Human neutrophil elastase (Homo sapiens, UniProt P08246)
Sequence (P08246 30-267): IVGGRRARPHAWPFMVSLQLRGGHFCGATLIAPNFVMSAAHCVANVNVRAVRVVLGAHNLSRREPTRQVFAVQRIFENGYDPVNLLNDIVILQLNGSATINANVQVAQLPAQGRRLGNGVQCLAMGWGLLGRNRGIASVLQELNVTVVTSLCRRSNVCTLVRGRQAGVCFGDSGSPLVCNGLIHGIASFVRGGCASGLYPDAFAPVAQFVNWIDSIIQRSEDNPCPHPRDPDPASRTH
Test: Human Neutrophil Elastase Assay
Conditions: Neutrophil Elastase assay; substrate MeOSuc-Ala-Ala-Pro-Val-AMC 250 μM; 15 min preincubation, 60 min incubation at room temperature; pH 7.5
# note: boundary value 9 nM maps to criterion not met; IC50 below it maps to criterion met

-- ask Hello, is IC50 of the following molecule strictly smaller than 9 nM? COCCCNC(=O)c1cn(C(C)c2ccc(C#N)cc2)c(C)c(-c2ccnc(C(F)(F)F)c2)c1=O (stereo not drawn)
-- reply criterion met

-- ask Consider the molecule "Cc1c(-c2cccc(C(F)(F)F)c2)c(=O)c(C(=O)NCC[N+](C)(C)C)cn1Cc1ccc(C#N)cc1" . Is its IC50 strictly less than 9 nM?
-- reply criterion not met

-- ask Does this molecule meet the criterion IC50 < 9 nM? Cc1c(-c2cccc(C(F)(F)F)c2)c(=O)c(C(=O)NCC2COCCO2)cn1Cc1ccc(C#N)cc1 (stereo not drawn)
-- reply criterion not met

-- ask Consider the molecule "Cc1c(-c2cccc(C(F)(F)F)c2)c(=O)c(C(=O)NCc2ccc(S(C)(=O)=O)cc2)cn1Cc1ccncc1" . Is its IC50 strictly less than 9 nM?
-- reply criterion not met

-- ask State whether 9 nM exceeds IC50 recorded for Cc1c(-c2ccnc(C(F)(F)F)c2)c(=O)c(C(=O)NCCCN(C)C)cn1C(C)c1ccc(C#N)cc1 (stereo not drawn) .
-- reply criterion not met

-- ask Decide: IC50 of Cc1c(-c2cccc(C(F)F)c2)c(=O)c(C(=O)NCC[S+](C)[O-])cn1C(C)c1ccc(C#N)cc1 (stereo not drawn) strictly below 9 nM?
-- reply criterion met

-- ask Does the reported IC50 of the following molecule sit strictly below 9 nM? "Cc1c(-c2cccc(C(F)(F)F)c2)c(=O)c(C(=O)NCc2ccc(S(C)(=O)=O)cn2)cn1Cc1ccc(C#N)nc1"
-- reply criterion met

-- ask Problem: For the molecule Cc1c(-c2cccc(C(F)(F)F)c2)c(=O)c(C(=O)NC2CCC(=O)N(C)C2)cn1Cc1ccc(C#N)cc1 (stereo not drawn) , is IC50 under 9 nM?
-- reply criterion not met

###

Target: Human neutrophil elastase (Homo sapiens)
Construct: purchased Calbiochem 324681
Sequence (P08246 30-267): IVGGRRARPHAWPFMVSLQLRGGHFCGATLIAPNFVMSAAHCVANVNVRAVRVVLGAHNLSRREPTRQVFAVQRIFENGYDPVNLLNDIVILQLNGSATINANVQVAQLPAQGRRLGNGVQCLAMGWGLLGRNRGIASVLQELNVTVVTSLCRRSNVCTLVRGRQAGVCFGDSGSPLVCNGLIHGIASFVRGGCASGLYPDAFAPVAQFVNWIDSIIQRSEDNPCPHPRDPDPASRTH
Assay: Human Neutrophil Elastase Assay
Format: biochemical
Conditions: Neutrophil Elastase assay; substrate MeOSuc-Ala-Ala-Pro-Val-AMC 250 μM; 15 min preincubation, 60 min incubation at room temperature; pH 7.5
Description: Human Neutrophil Elastase Assay All other materials were of the highest grade commercially available. […] Assay conditions: Test compounds were prediluted in DMSO and subsequently in compound buffer (5% DMSO final). […] After inactivation of the enzyme, fluorescence intensities were measured at 380 nm excitation and 460 nm emission wavelengths. […]
property label: log10 of IC50 (log10 of the value in nM)
// stored as log10 of IC50 expressed in nM

-- ask Provide measured log10 of IC50 value, entry: Cc1c(-c2ccnc(C(F)(F)F)c2)c(=O)c(C(=O)NCC(C)(C)C)cn1C(C)c1ccc(C#N)cc1 (centres unmarked) [Example 9.52]
-- reply 2.62

-- ask Please give measured log10 of IC50 of the following entry: Cc1c(-c2cccc(C(F)(F)F)c2)c(=O)c(C(=O)N[C@H]2CC[C@H](O)CC2)cn1Cc1ccc(C#N)cc1 [Example 1.27]
-- reply 1.67

-- ask Annotate the molecule Cc1c(-c2cccc(C(F)(F)F)c2)c(=O)c(C(=O)NCCN2CCNC2=O)cn1Cc1ccc(C#N)cc1 [Example 1.21] with its measured log10 of IC50.
-- reply 1.16

-- ask Answer with the recorded log10 of IC50 for the molecule listed here: CNC(=O)c1cn(C(C)c2ccc(C#N)cc2)c(C)c(-c2ccc(F)c(C(F)(F)F)c2)c1=O (centres unmarked) [Example 30]
-- reply 0.72

-- ask Please report the measured log10 of IC50 for Cc1c(-c2cccc(C(F)F)c2)c(=O)c(C(=O)NC2CNC(=O)C2)cn1C(C)c1ccc(C#N)cc1 (centres unmarked) [Example 8.7]
-- reply 0.23

-- ask Please give measured log10 of IC50 of the following entry: Cc1c(-c2cccc(C(F)(F)F)c2)c(=O)c(C(=O)NCC[S+](C)[O-])cn1C(C)c1ccc(C#N)cc1 (centres unmarked) [Example 7.8]
-- reply 0.11

-- ask Please supply the value of reported log10 of IC50 for the item Cc1c(-c2cccc(C(F)(F)F)c2)c(=O)c(C(=O)NC2(C#N)CC2)cn1C(C)c1ccc(C#N)cn1 (centres unmarked) [Example 47.18]
-- reply 0.81

-- ask Using known records, supply log10 of IC50 for Cc1c(-c2ccnc(C(F)(F)F)c2)c(=O)c(C(=O)NCC(C)O)cn1C(C)c1ccc(C#N)cc1 (centres unmarked) [Example 9.62]
-- reply 1.08

-- ask Provide one value: measured log10 of IC50 of Cc1c(-c2ccnc(C(F)(F)F)c2)c(=O)c(C(=O)NCc2cnn(C)c2)cn1C(C)c1ccc(C#N)cc1 (centres unmarked) [Example 9.19]
-- reply 0.95

-- ask Provide one value: measured log10 of IC50 of Cc1c(-c2cccc(C(F)(F)F)c2)c(=O)c(C(=O)NCc2ccc(S(C)(=O)=O)cc2)cn1Cc1ccc(F)cc1 [Example 2.2]
-- reply 0.28

-- ask Provide only the value of recorded log10 of IC50 for Cc1c(-c2cccc(C(F)F)c2)c(=O)c(C(=O)NCc2cnn(C)c2)cn1C(C)c1ccc(C#N)cc1 (centres unmarked) [Example 8.28]
-- reply 0.52

-- ask For Cc1c(-c2ccnc(C(F)(F)F)c2)c(=O)c(C(=O)NCC2(C)COC2)cn1C(C)c1ccc(C#N)cc1 (centres unmarked) [Example 9.38] , write its log10 of IC50.
-- reply 1.52

-- ask Output log10 of IC50 of Cc1c(-c2cncc(C(F)(F)F)c2)c(=O)c(C(=O)NCc2ccc(S(C)(=O)=O)cc2)cn1Cc1ccc(C#N)cc1 [Example 6.13]
-- reply 0.40

-- ask Please give measured log10 of IC50 of the following entry: Cc1c(-c2cccc(C(F)(F)F)c2)c(=O)c(C(=O)NCC2CC2)cn1C(C)c1ccc(C#N)cn1 (centres unmarked) [Example 47.5]
-- reply 1.22

-- ask Return the recorded log10 of IC50 value; entry: COc1cc(C#N)ccc1Cn1cc(C(=O)NCc2ccc(S(C)(=O)=O)cc2)c(=O)c(-c2cccc(C(F)(F)F)c2)c1C [Example 2.6]
-- reply 0.20

-- ask State its log10 of IC50 for this molecule: Cc1c(-c2ccnc(C(F)(F)F)c2)c(=O)c(C(=O)NCCC(C)O)cn1C(C)c1ccc(C#N)cc1 (centres unmarked) [Example 9.60]
-- reply 0.76

-- ask Let me know recorded log10 of IC50 for Cc1c(-c2cccc(C(F)(F)F)c2)c(=O)c(C(=O)NCc2ccn(C)n2)cn1Cc1ccc(C#N)cc1 [Example 1.34] , thanks.
-- reply 0.95

-- ask Given the molecule Cc1c(-c2cccc(C(F)(F)F)c2)c(=O)c(C(N)=O)cn1C(C)c1ccc(C#N)cc1 (centres unmarked) [Example 7.17] , write its reported log10 of IC50.
-- reply 1.27

-- ask Tell us which log10 of IC50 value is on record for Cc1cccc(-c2c(C)n(Cc3ccc(C#N)cc3)cc(C(=O)NCc3ccc(S(C)(=O)=O)cc3)c2=O)c1 [Example 6.2]
-- reply 0.18

-- ask Give log10 of IC50 for the following molecule: Cc1c(-c2cccc(C(F)(F)F)c2)c(=O)c(C(=O)NCCO)cn1Cc1ccc(C#N)cc1 [Example 1.1]
-- reply 1.18

-- ask Supply measured log10 of IC50 of Cc1c(-c2ccnc(C(F)(F)F)c2)c(=O)c(C(=O)NC(C)(C)C#N)cn1C(C)c1ccc(C#N)cc1 (centres unmarked) [Example 9.46] in your reply.
-- reply 1.97

-- ask Answer with reported log10 of IC50 of Cc1c(-c2cccc(C(F)(F)F)c2)c(=O)c(C(=O)NCc2ccc(S(C)(=O)=O)cn2)cn1Cc1ccc(Cl)cc1 [Example 4.2]
-- reply 0.32

-- ask Report measured log10 of IC50; entry is Cc1c(-c2cccc(C(F)(F)F)c2)c(=O)c(C(=O)NCC(F)F)cn1C(C)c1ccc(C#N)cc1 (centres unmarked) [Example 7.20]
-- reply 0.56

-- ask Please look at this molecule and report its log10 of IC50: CNC(=O)c1cn(Cc2ccc(Cl)cc2)c(C)c(-c2cccc(C(F)(F)F)c2)c1=O [Example 3.4]
-- reply 1.46
